Exercise: for every item that follows, state its recorded melting point.

For COc1ccc(S(=O)(=O)N2C(=O)[C@@](c3ccccc3OC)(N3C[C@H](OC(C)=O)C[C@H]3C(=O)N(C)C)c3cc(Cl)ccc32)c(OC)c1 the molecule record lists melting point as 194 to 195 °C

For Oc1cc2c(nn1)CCCCCCCCCC2 the molecule record lists melting point as 188 to 189 °C

For COc1ccc(Cc2n[nH]c3c2c(=O)n(-c2ccccc2)c2ncccc32)cc1OC the molecule record lists melting point as 230 to 232 °C

For CS(=O)(=O)c1ccc(-c2nn3c(-c4ccccc4)coc3c2-c2ccc(F)cc2)cc1 the molecule record lists melting point as 151 to 154 °C

For CSc1ccc2ncn(/C=C/C(=O)O)c(=O)c2c1 the molecule record lists melting point as 271 to 272 °C

For O=C(O)c1ccc(NCC=Cc2ccccc2)cc1 the molecule record lists melting point as 200 to 202 °C

For N#Cc1cccc(Oc2ccccc2)c1C#N the molecule record lists melting point as 110 to 112 °C

For CCOC(=O)C=Cn1c(=O)n2nc(C(=O)OCC)cc2c2cc(OC)ccc21 the molecule record lists melting point as 153 to 154 °C

For OCc1cn(Cc2ccc(Cl)cc2)nc1CN1CCC(c2ccccc2)(c2ccccc2)CC1 the molecule record lists melting point as 104 to 105 °C

For COc1sc(-c2ccc(NS(=O)(=O)c3sc4ccc(F)cc4c3C)c(S(C)(=O)=O)c2)nc1C the molecule record lists melting point as 216 to 217 °C

For Cc1cc(N)n(-c2ccc(Cl)cc2C)n1 the molecule record lists melting point as 86 to 87 °C

For COc1ccc(C2=NN(CCCCCCBr)C(=O)[C@H]3CCCC[C@@H]23)cc1OC (relative stereo) the molecule record lists melting point as 74 to 75 °C

For COc1ccc(Cn2nnnc2C(=O)Nc2cc(Cl)cc(NC(=O)c3nnnn3Cc3ccc(OC)cc3)n2)cc1 the molecule record lists melting point as 201 to 203 °C

For CNCC1CN(c2c(F)cc3c(=O)c(C(=O)O)cn(C4CC4)c3c2F)CC1C (stereo unspecified) the molecule record lists melting point as 252 to 254 °C

For CC(=O)OCCOCc1nc2nccnc2c(=O)[nH]1 the molecule record lists melting point as 157 to 159 °C

For OCC1OC(n2c(Cl)nc3cc(Cl)c(Cl)cc32)C(O)C1F (stereo unspecified) the molecule record lists melting point as 238 °C

For CN(Cc1cccs1)C(=O)C12CC3CC(CC(O)(C3)C1)C2 the molecule record lists melting point as 88 to 91 °C

For CCCc1c(O)c(O)c(C(=O)O)c2cc(C)c(C)cc12 the molecule record lists melting point as 170 to 172 °C

For Nc1cc(OC(=O)Oc2cc(N)c(F)cc2Cl)c(Cl)cc1F the molecule record lists melting point as 136 to 137 °C

For CC(OC(=O)C1N2C(=O)C(NC(=O)Cc3ccccc3)C2S(=O)C1(C)C)C1CC1 (stereo unspecified) the molecule record lists melting point as 158 to 159 °C

For Fc1ccc(COc2ncc(F)c(NCOCc3ccccc3)n2)cc1 the molecule record lists melting point as 64 to 66 °C
